Test system: Nucleic Acid
TEST: Evaluated for thermal denaturation at pH 3.9 against poly(A)-poly(U) synthetic RNA oligonucleotide
Type: nucleic-acid assay
VALUE KIND: ΔTm

Q: Please state recorded ΔTm (tested on Nucleic Acid) of c1ccc(CN2CCN(CCCN3CCN(Cc4ccccc4)CC3)CC2)cc1
Result: 2.4

Q: Please state recorded ΔTm (tested on Nucleic Acid) of c1cc(CN2CCN(Cc3ccc(CN4CCNCC4)cc3)CC2)ccc1CN1CCNCC1
Result: 29.3

Q: Please state recorded ΔTm (tested on Nucleic Acid) of c1cc(CN2CCC(N3CCCCC3)CC2)ccc1CN1CCC(N2CCCCC2)CC1
Result: 17.7

Q: Please state recorded ΔTm (tested on Nucleic Acid) of C(CN1CCC(C2=NCCN2)CC1)CN1CCC(C2=NCCN2)CC1
Result: 28.7

Q: Please state recorded ΔTm (tested on Nucleic Acid) of c1cc(CN2CCC(C3=NCCN3)CC2)ccc1CN1CCC(C2=NCCN2)CC1
Result: 23.3
